- System: SK-MEL-28
- test_protocol: NCI tumour cell line growth inhibition, 48 h
Activity calls are given as the source filed them. Cut-off read from the data, not from the text of the source: active = GI50 up to about 1.1 µM and inactive = higher.
Below, each entry is listed alongside its reported GI50.

CCCC(=O)Nc1cn(COC)c(C(=O)N2C[C@@H]3C[C@]34C2=CC(=O)c2[nH]cc(C)c24)n1    14.5 µM (inactive)
O=[N+]([O-])c1c(F)c(F)c2c(c1F)Nc1ccccc1S2    2.51 µM (inactive)
CO[C@H]1O[C@@H]2CO[C@@H](c3ccccc3)O[C@H]2[C@@H]2CC=CCC[C@]12O    > 100 µM (inactive)

Req: What value of GI50 has been recorded for this entry: CCOC(=O)CCC(NC(=O)Cc1ccc(Oc2nc3ccccc3nc2-c2ccccc2)cc1)C(=O)OCC (stereo not given)
Resp: > 100 µM (inactive)

Req: Another: Cc1cn([C@H]2C[C@H](O)[C@@H](CO)O2)c(=O)nc1N
Resp: > 100 µM (inactive)

Req: Another: [O-][N+]1=C2CCC/C(=N/O)C2(O)C2CCCCC21N1CCOCC1 (stereo not given)
Resp: > 100 µM (inactive)
